biological target: MSI-1 RRM1 (Homo sapiens, UniProt O43347 1-103); assay: SPR; 1:1 model; NMR: 50 mM Tris-HCl, 140 mM NaCl, 1 mM EDTA, 1 mM protease inhibitors, pH 7.2 (RRM1: pH 7.5), 298 K; fluorescence quenching: 50 mM Tris pH 7.2, 140 mM NaCl, 1 mM EDTA; SPR: biotinylated RNA immobilised, buffer not in the material; details: protein: recombinant; label: biotin for SPR; single strand
Sequence (O43347 1-103): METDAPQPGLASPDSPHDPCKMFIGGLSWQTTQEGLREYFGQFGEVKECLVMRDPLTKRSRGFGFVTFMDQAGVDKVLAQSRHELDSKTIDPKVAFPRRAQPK
PARAMETER: Kd (nM)

>>> print(df.to_string())
                                  binder  parameter  quantitative_readout
0  UUGUCAGUUACCCCUU (ssRNA) [oligo-L2.1]         Kd                   151
